target: Glutamate receptor ionotropic, kainate 2 (Homo sapiens, UniProt Q13002)
Sequence (Q13002 whole entry): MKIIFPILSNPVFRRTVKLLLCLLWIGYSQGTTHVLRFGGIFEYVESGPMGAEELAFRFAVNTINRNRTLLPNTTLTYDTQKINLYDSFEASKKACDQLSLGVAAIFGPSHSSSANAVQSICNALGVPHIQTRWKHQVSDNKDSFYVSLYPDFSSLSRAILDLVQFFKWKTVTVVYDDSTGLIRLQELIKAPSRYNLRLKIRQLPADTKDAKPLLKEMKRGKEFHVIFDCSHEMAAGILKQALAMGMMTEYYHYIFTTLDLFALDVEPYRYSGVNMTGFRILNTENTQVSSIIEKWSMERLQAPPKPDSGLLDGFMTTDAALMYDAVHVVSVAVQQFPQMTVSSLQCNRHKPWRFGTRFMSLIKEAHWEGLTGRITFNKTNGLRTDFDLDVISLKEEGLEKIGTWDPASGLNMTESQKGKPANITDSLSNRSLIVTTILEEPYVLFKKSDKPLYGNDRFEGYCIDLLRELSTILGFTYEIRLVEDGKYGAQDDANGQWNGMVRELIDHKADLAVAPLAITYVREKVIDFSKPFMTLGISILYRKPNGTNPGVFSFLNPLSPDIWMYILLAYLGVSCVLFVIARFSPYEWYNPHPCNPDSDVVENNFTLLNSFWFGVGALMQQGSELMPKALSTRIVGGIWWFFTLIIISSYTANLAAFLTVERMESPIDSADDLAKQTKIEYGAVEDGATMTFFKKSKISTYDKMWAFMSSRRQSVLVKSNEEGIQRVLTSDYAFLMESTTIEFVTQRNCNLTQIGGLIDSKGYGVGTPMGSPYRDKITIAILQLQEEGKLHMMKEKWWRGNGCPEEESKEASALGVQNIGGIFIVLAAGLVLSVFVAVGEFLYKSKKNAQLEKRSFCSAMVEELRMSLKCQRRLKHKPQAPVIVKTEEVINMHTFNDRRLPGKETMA
measure: Ki

{"columns": ["molecule", "result"],
 "data": [
  ["O=C(O)c1ccc(C[C@H]2CC[C@H]3CN[C@H](C(=O)O)C[C@H]3C2)cc1 [LY 382884]", "> 10 µM"]
]}

Reference for the values: BindingDB's records for doi:10.1038/46290
